Assay: Cytotoxicity against human MT4 cells by MTT assay
Assay type: cell-based
OUTCOME MEASURE: CC50 (µM)
Your answer should be a plain number; it is taken to be in µM.

Reference set, count: 3
1) Cc1ccc(-n2ccnc2SCC(=O)Nc2ccccc2Br)cc1 ... 39.3
2) Cc1ccc(-n2ccnc2SCC(=O)Nc2ccccc2[N+](=O)[O-])cc1 ... 131
3) Cc1ccc(NC(=O)CSc2nccn2-c2ccc(Cl)cc2)c(Br)c1 ... 221

Value of CC50 reported for the compound O=C(CSc1nccn1-c1cccc2ccccc12)Nc1ccccc1[N+](=O)[O-] is 28.8

###

Assay: Selectivity index, ratio of CC50 for human MT4 cells to EC50 for HIV1 3B
Format: toxicity, cell-based
Conditions: MT4 cells, read-out: Ratio CC50/EC50
# selectivity ratio per entry

Reference set, count: 3
1. COc1ccc(-n2ccnc2SCC(=O)Nc2ccc(C)cc2Br)cc1 ... < 1
2. O=C1Nc2ccc(Cl)cc2[C@@](C#CC2CC2)(C(F)(F)F)O1 [EFAVIRENZ] ... > 1430
3. Cc1ccc(-n2ccnc2SCC(=O)Nc2ccc(C)cc2Br)cc1 ... 66

Value of selectivity ratio reported for the molecule COc1ccc(-n2ccnc2SCC(=O)Nc2ccccc2[N+](=O)[O-])cc1 is > 9

Value of selectivity ratio reported for the molecule Cc1ccc(-n2ccnc2SCC(=O)Nc2ccccc2C)cc1 is 5

Value of selectivity ratio reported for the molecule Cc1ccc(-n2ccnc2SCC(=O)Nc2ccccc2Cl)cc1 is 7

###

Assay: Selectivity index, ratio of CC50 for human MT4 cells to EC50 for HIV1 3B
Type: toxicity, cell-based
Details: MT4 cells, read-out: Ratio CC50/EC50
Label y when selectivity ratio is strictly below 20; at or above that, label n.

Input O=C(CSc1nccn1-c1cccc2ccccc12)Nc1ccccc1[N+](=O)[O-] ; condition: selectivity ratio strictly below 20. Does it hold? n

Input Cc1ccc(-n2ccnc2SCC(=O)Nc2ccccc2Br)cc1 ; condition: selectivity ratio strictly below 20. Does it hold? y

###

Tested on: Human immunodeficiency virus 1
Experiment: Antiviral activity against […] HIV1 bearing reverse transcriptase K103/Y181C mutation by MTT assay
Format: functional, organism-based
OUTCOME MEASURE: pEC50
pEC50 here: minus log base 10 of the concentration, concentration in moles per litre.

Value of pEC50 reported for the compound Cc1ccc(NC(=O)CSc2nnc(C)n2-c2ccccc2)c(Br)c1 is 5.89

###

Test: Selectivity index, ratio of CC50 for human MT4 cells to EC50 for HIV1 3B
Format: toxicity, cell-based
Conditions: MT4 cells, read-out: Ratio CC50/EC50
# selectivity ratio per entry

Reference set, count: 4
1. Cc1cn([C@H]2C[C@H](N=[N+]=[N-])[C@@H](CO)O2)c(=O)[nH]c1=O ... > 6190
2. O=C(CSc1nccn1-c1ccc(Cl)cc1)Nc1ccccc1F ... > 8
3. Cc1ccc(-n2ccnc2SCC(=O)Nc2ccccc2F)cc1 ... < 1
4. O=C(CSc1nccn1-c1ccc(Cl)cc1)Nc1ccccc1Br ... > 19

Now examine the next entry.
Value of selectivity ratio reported for the compound COc1ccc(-n2ccnc2SCC(=O)Nc2ccccc2C)cc1 is > 2

###

# selectivity ratio per entry
Assay: Selectivity index, ratio of CC50 for human MT4 cells to EC50 for HIV1 3B
Format: toxicity, cell-based
Conditions: MT4 cells, read-out: Ratio CC50/EC50
The answer should be a number; do not append a unit.

1) Cc1ccc(NC(=O)CSc2nccn2-c2cccc3ccccc23)c(Br)c1 ... 40
2) O=C(CSc1nccn1-c1cccc2ccccc12)Nc1ccccc1F ... 20
3) O=C(CSc1nccn1-c1cccc2ccccc12)Nc1ccccc1Br ... 48
4) Cc1ccc(NC(=O)CSc2nccn2-c2ccc(Cl)cc2)c(Br)c1 ... 64
5) Cc1ccc(-n2ccnc2SCC(=O)Nc2ccccc2[N+](=O)[O-])cc1 ... 126

Value of selectivity ratio reported for the compound Cc1ccccc1NC(=O)CSc1nccn1-c1cccc2ccccc12 is 14
